molecules and their reported hERG current change (%, negative = inhibition) at 10uM
Target: human ether-à-go-go-related gene (hERG) potassium channel (human, UniProt Q12809);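 further: peak tail current of the secondary pulse compared with the same well before compound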
Sequence (Q12809 whole entry, looked up): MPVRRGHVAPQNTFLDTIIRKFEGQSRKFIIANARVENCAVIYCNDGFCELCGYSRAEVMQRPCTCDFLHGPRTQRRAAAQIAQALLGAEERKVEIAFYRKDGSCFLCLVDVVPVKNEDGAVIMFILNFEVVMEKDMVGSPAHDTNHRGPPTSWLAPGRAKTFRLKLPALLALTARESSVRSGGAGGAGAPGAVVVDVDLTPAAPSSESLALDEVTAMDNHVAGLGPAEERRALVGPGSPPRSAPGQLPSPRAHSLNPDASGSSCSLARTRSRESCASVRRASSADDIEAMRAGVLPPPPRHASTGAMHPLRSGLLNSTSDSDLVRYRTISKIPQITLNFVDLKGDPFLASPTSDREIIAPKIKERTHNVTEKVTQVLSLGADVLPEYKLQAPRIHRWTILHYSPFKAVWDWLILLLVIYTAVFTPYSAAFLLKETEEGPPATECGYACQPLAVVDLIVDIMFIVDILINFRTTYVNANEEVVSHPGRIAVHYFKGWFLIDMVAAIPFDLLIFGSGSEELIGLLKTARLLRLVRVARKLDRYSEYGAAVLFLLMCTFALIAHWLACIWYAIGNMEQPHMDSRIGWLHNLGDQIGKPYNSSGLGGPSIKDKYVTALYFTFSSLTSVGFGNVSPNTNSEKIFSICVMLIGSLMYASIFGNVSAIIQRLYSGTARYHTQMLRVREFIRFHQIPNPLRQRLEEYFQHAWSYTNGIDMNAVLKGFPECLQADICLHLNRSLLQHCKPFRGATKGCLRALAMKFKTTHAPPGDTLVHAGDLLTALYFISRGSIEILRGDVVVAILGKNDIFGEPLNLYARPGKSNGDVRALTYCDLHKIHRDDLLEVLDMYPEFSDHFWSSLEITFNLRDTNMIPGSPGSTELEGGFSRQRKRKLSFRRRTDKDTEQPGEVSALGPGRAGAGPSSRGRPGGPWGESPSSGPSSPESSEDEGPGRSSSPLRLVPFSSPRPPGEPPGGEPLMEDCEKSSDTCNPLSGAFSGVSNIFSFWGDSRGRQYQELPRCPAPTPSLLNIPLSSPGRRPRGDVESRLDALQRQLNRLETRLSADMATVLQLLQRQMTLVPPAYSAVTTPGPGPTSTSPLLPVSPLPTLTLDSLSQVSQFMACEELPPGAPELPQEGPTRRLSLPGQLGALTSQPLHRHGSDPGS
Test: primary screen, population patch clamp on CHO cells stably expressing hERG; higher = less effect of the substance
Out of some 310,000 compounds screened, about 14,000 (4.5%) showed an effect of 50% or more. The effect is printed as a negative number. Many of the other results were omitted from the sample, so strong results are more common in it than they were.
Endpoint: hERG current change (%, negative = inhibition) at 10uM (%)

Smiles Input: COc1ccc2[nH]cc(CCCN3C(=O)c4ccccc4C3=O)c2c1
Data Value: -4.87
//
Smiles Input: Cc1ccc(CC(=O)N(C)CC(=O)N(CC(C)C)c2c(N)n(CC(C)C)c(=O)[nH]c2=O)cc1C
Data Value: -2.54
//
Smiles Input: Cc1[nH]c(C)c(S(=O)(=O)Nc2ccccc2Cl)c1C(=O)N1CCCC1
Data Value: 15.7
